- Assayed system: binding partner of C5A (XPA23)
- Experimental details: Biacore K-off
For each of the binders below, state its fold difference in affinity vs original.
Field: numeric (fold). Do not append units.

Query: Give reported fold difference in affinity vs original value for C5A (XPA23) VL N30G (antibody, V domains shown) VH: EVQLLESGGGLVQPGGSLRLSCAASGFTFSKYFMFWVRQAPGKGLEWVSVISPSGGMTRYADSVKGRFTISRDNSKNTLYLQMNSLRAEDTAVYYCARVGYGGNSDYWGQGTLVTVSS VL: DIQMTQSPSSVSASVGDRLTIICRASQDIGRWLAWYQQTPGNAPKLLIHSATSLQSGVPSRFSGSGSGTDFTLTINSLQPEDFATYYCQQADSFPLTFGGGTKVEIK
Response: 0.71

Query: Give reported fold difference in affinity vs original value for C5A (XPA23) VL T52Q (antibody, V domains shown) VH: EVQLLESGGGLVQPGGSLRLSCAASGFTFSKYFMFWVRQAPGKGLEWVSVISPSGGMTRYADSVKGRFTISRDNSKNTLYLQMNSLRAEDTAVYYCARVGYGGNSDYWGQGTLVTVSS VL: DIQMTQSPSSVSASVGDRLTIICRASQDINRWLAWYQQTPGNAPKLLIHSAQSLQSGVPSRFSGSGSGTDFTLTINSLQPEDFATYYCQQADSFPLTFGGGTKVEIK
Response: 0.83

Query: Give reported fold difference in affinity vs original value for C5A (XPA23) VL H49P (antibody, V domains shown) VH: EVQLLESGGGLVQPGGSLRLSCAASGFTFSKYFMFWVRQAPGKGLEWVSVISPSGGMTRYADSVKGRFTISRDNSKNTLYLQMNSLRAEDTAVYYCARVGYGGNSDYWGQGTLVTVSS VL: DIQMTQSPSSVSASVGDRLTIICRASQDINRWLAWYQQTPGNAPKLLIPSATSLQSGVPSRFSGSGSGTDFTLTINSLQPEDFATYYCQQADSFPLTFGGGTKVEIK
Response: 0.86

Query: Give reported fold difference in affinity vs original value for C5A (XPA23) VL D28P (antibody, V domains shown) VH: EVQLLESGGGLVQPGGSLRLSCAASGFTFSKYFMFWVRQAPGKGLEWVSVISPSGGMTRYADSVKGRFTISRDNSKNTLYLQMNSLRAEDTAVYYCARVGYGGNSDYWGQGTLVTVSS VL: DIQMTQSPSSVSASVGDRLTIICRASQPINRWLAWYQQTPGNAPKLLIHSATSLQSGVPSRFSGSGSGTDFTLTINSLQPEDFATYYCQQADSFPLTFGGGTKVEIK
Response: 1.17

Query: Give reported fold difference in affinity vs original value for C5A (XPA23) VL T52V (antibody, V domains shown) VH: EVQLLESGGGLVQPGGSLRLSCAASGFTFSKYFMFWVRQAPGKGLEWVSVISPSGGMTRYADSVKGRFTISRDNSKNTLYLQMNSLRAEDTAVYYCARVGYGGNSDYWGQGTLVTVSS VL: DIQMTQSPSSVSASVGDRLTIICRASQDINRWLAWYQQTPGNAPKLLIHSAVSLQSGVPSRFSGSGSGTDFTLTINSLQPEDFATYYCQQADSFPLTFGGGTKVEIK
Response: 0.82

Query: Give reported fold difference in affinity vs original value for C5A (XPA23) VL A91D (antibody, V domains shown) VH: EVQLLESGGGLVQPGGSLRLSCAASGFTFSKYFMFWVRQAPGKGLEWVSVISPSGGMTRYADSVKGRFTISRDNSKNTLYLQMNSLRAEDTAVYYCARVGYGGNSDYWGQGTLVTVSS VL: DIQMTQSPSSVSASVGDRLTIICRASQDINRWLAWYQQTPGNAPKLLIHSATSLQSGVPSRFSGSGSGTDFTLTINSLQPEDFATYYCQQDDSFPLTFGGGTKVEIK
Response: 1.08

Query: Give reported fold difference in affinity vs original value for C5A (XPA23) VL A51T (antibody, V domains shown) VH: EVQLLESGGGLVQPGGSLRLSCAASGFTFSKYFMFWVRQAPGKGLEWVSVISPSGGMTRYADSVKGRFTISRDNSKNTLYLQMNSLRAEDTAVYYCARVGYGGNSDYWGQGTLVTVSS VL: DIQMTQSPSSVSASVGDRLTIICRASQDINRWLAWYQQTPGNAPKLLIHSTTSLQSGVPSRFSGSGSGTDFTLTINSLQPEDFATYYCQQADSFPLTFGGGTKVEIK
Response: 0.76

Query: Give reported fold difference in affinity vs original value for C5A (XPA23) VL A91N (antibody, V domains shown) VH: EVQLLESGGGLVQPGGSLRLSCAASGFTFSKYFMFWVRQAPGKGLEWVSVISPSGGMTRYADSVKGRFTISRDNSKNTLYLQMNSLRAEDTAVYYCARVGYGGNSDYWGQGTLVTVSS VL: DIQMTQSPSSVSASVGDRLTIICRASQDINRWLAWYQQTPGNAPKLLIHSATSLQSGVPSRFSGSGSGTDFTLTINSLQPEDFATYYCQQNDSFPLTFGGGTKVEIK
Response: 0.1

Query: Give reported fold difference in affinity vs original value for C5A (XPA23) VL Q27E (antibody, V domains shown) VH: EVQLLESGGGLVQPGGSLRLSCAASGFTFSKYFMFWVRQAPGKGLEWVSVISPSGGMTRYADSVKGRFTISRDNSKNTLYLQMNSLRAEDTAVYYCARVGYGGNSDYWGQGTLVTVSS VL: DIQMTQSPSSVSASVGDRLTIICRASEDINRWLAWYQQTPGNAPKLLIHSATSLQSGVPSRFSGSGSGTDFTLTINSLQPEDFATYYCQQADSFPLTFGGGTKVEIK
Response: 1.08

Query: Give reported fold difference in affinity vs original value for C5A (XPA23) VL N30P (antibody, V domains shown) VH: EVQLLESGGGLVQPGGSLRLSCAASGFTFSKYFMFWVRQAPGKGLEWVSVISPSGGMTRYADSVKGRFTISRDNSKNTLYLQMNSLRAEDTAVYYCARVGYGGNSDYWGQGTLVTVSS VL: DIQMTQSPSSVSASVGDRLTIICRASQDIPRWLAWYQQTPGNAPKLLIHSATSLQSGVPSRFSGSGSGTDFTLTINSLQPEDFATYYCQQADSFPLTFGGGTKVEIK
Response: 0.69

Values from patent US20110118447A1
